Entry source: patent US20250296992A1

assayTarget: T1, human SLITRK6 extracellular domain linked to his tag (human, UniProt Q9H5Y7 27-608)
T1 construct: extracellular domain; also called huSLITRK6; Hu SLITRK6; not shown: his tag
test: BLI; antigen ECD-his on anti-his tips, antibody as analyte; 1:1 fit;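 also: antibody at several concentrations, 180 s association then 300 s dissociation in Tris buffer at pH 6 or 7.5, rate constants from global fitting, KD computed as koff/kon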
# pKd values compiled below
// pKd here means minus log10 of the molar concentration (mol/L)

Consider the reported pKd for these binders:
{"columns": ["binder", "reportedMeasurement"],
 "data": [
  ["hu1H2-03 (antibody, V domains shown, see m20) VH: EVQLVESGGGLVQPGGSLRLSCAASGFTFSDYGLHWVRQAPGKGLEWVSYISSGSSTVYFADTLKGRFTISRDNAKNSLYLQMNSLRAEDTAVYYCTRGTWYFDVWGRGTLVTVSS VL: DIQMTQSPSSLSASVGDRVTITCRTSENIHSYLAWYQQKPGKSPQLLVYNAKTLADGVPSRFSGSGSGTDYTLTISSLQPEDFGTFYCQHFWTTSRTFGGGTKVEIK", 9.04],
  ["phA290 (antibody, V domains shown, From phage display, then full-length construction; Only the variable regions are tied to the name) VH: QVQLVQSGAEVKKPGASVKVSCKASGYTFTSYYMHWVRQAPGQGLEWMGIINPSGGSTSYAQKFQGRVTMTRDTSTSTVYMELSSLRSEDTAVYYCARGFTRYFDYWGQGTLVTVSA VL: EIVMTQSPGTLSLSPGERATLSCRASQSVSKYLAWYQQRPGQAPRLLIYDASNRATGIPARFSGSGSGTDFTLTVSSLEPEDFAVYYCQQRYNWPLTFGGGTTVEIK", 8.97],
  ["hu1H2-13 (antibody, V domains shown) VH: EVQLVESGGGLVQPGGSLRLSCAASGFTFSDYGLHWVRQAPGKGLEWVAYISSGSSTVYFADTLKGRFTISRDNAKNSLYLQMNSLRAEDTAVYYCTRGTWYFDVWGRGTLVTVSS VL: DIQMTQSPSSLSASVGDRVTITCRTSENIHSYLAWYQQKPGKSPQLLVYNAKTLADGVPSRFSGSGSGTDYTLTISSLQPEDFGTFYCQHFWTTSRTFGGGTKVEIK", 9.04],
  ["phA108 (antibody, V domains shown, From phage display, then full-length construction; Only the variable regions are tied to the name) VH: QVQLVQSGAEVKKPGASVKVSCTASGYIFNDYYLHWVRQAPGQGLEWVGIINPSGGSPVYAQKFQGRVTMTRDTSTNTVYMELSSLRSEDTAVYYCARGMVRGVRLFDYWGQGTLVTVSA VL: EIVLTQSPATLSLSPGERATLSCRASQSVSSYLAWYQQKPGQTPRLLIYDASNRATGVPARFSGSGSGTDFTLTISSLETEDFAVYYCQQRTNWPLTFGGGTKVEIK", 8.98],
  ["hu14G1-03 (antibody, V domains shown) VH: EVQLVESGGGLVQPGGSLRLSCAASGFTFSDYGMHWVRQAPGKGLEWVSYISPGSSTIYYADTMKGRFTISRDNAKNSLYLQMNSLRAEDTAVYYCARAYGGSYWYFAVWGQGTLVTVSS VL: DIQMTQSPSSLSASVGDRVTITCRASGNIHSYLAWYQQKPGKSPQLLVYNAKTLADGVPSRFSGSGSGTDYTLTISSLQPEDFGTYYCQHFWSTPYTFGGGTKLEIK", 9.67]
]}

Continue with the next binder.
Query :: I am curious: what pKd value has been reported for Sirtratumab (antibody, V domains shown, Prior-art benchmark antibody; also called Sirtratuzumab) VH: QVQLVESGGGVVQPGRSLRLSCAASGFTFSSYGMHWVRQAPGKGLEWVAVIWYDGSNQYYADSVKGRFTISRDNSKNTLFLQMHSLRAEDTAVYYCARGLTSGRYGMDWGQGTTVTVSS VL: DIVMTQSPLSLPVTPGEPASISCRSSQSLLLSHGFNYLDWYLQKPGQSPQLLIYLGSSRASGVPDRFSGSGSGTDFTLKISRVEAEDVGLYYCMQPLQIPWTFGQGTKVEIK ?
Result :: 8.30
